quantity-name: pIC50
Please keep in mind that pIC50 is minus log10 of the molar concentration; only the number is needed.

Bench note, UniProt:P30518: entry O=C(Nc1cc(C(=O)N2Cc3ccc(C(=O)C(Cl)(Cl)Cl)n3Cc3ccccc32)ccc1Cl)c1ccccc1-c1ccccc1 , its pIC50 = 8.25

Bench note, UniProt:P30518: entry Cc1ccc(F)cc1C(=O)Nc1ccc(C(=O)N2Cc3ccc(C(=O)[N-][N+](C)(C)C)n3Cc3ccccc32)c(Cl)c1 , its pIC50 = 7.22
